Test system: P. aeruginosa 1405
EXPERIMENT: MIC determination in Muller Hinton Agar (CLSI);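 also: MIC read as lowest concentration giving complete growth inhibition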
Format: cell-based, Pseudomonas aeruginosa
RUN PARAMETERS: in presence of Compound A at 4 mcg/ml
MEASURED ENDPOINT: MIC (mcg/ml) of carbapenem in presence of [A] at 4 mcg/ml (µg/mL)
Kindly provide the numeric value in µg/mL only, without the unit symbol.

For orientation, consider the following solved cases.
{"MOLECULE": "C[C@@H](O)[C@H]1C(=O)N2C(C(=O)O)=C(S[C@@H]3CN[C@H](C(=O)N(C)C)C3)[C@H](C)[C@H]12 [Meropenem, meropenem]", "TESTED SYSTEM": "P. aeruginosa 1405", "RESULT UNITS": "µg/mL", "TEST RESULT": 4}
{"MOLECULE": "C[C@@H](O)[C@H]1C(=O)N2C(C(=O)O)=C(SCCN=CN)C[C@H]12 [Imipenem, imipenem]", "TESTED SYSTEM": "P. aeruginosa 1405", "RESULT UNITS": "µg/mL", "TEST RESULT": 1}
{"MOLECULE": "C[C@@H](O)[C@H]1C(=O)N2C(C(=O)O)=C(S[C@@H]3CN[C@H](C(=O)Nc4cccc(C(=O)O)c4)C3)[C@H](C)[C@H]12 [Ertapenem, ertapenem]", "TESTED SYSTEM": "P. aeruginosa 1405", "RESULT UNITS": "µg/mL", "TEST RESULT": 128}

Could you now consider this next molecule?
The recorded MIC (mcg/ml) of carbapenem in presence of [A] at 4 mcg/ml for entry C[C@@H](O)[C@H]1C(=O)N2C(C(=O)O)=C(S[C@@H]3CN[C@H](CNS(N)(=O)=O)C3)[C@H](C)[C@H]12 [Doripenem, doripenem] equals 4
